Origin of the recorded values: ChEMBL document CHEMBL5291721

This document collects AC50 values reported for UniProt P30542.
Sequence (P30542 whole entry): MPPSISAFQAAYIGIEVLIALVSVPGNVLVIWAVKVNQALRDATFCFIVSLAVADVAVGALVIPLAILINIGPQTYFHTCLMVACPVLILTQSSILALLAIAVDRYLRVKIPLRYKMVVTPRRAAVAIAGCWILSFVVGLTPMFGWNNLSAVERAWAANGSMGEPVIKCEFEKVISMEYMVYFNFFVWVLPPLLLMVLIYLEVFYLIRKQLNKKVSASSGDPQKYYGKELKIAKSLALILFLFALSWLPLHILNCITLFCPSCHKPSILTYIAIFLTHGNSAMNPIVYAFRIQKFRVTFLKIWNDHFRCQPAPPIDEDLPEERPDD

Recorded results for 5 compounds are shown here.
{"compound": "CCCSc1ccc2nc(NC(=O)OC)[nH]c2c1", "AC50": "> 10 µM"}
{"compound": "Fc1ccc(C(c2ccccc2)(c2ccccc2F)n2ccnc2)cc1 (stereo not drawn)", "AC50": "> 30 µM"}
{"compound": "Nc1nc(N)nc(-c2cc(Cl)ccc2Cl)n1", "AC50": "> 30 µM"}
{"compound": "C1CCC(C(CC2CCCCN2)C2CCCCC2)CC1 (stereo not drawn)", "AC50": "> 30 µM"}
{"compound": "Cc1ccc(-c2cc(C(F)(F)F)nn2-c2ccc(S(N)(=O)=O)cc2)cc1", "AC50": "> 10 µM"}

// query Please give the measured AC50 for this compound: `CN1C(=O)OC(C)(C)C1=O`
// result > 10 µM

// query Now consider C[C@]12CCC(=O)C=C1CC[C@@H]1[C@@H]2[C@@H](O)C[C@@]2(C)[C@H]1CC[C@]2(O)C(=O)CO [HYDROCORTISONE] .
// result > 30 µM

// query Let us now turn to `CCc1c(Cl)c(O)c(Cl)c(O)c1C(=O)O[C@H]1[C@H](O)[C@H](OC)[C@H](OC/C2=C\C=C\C[C@H](O)/C(C)=C/[C@H](CC)[C@@H](O[C@@H]3OC(C)(C)[C@@H](OC(=O)C(C)C)[C@H](O)[C@@H]3O)/C(C)=C/C(C)=C/C[C@@H]([C@@H](C)O)OC2=O)O[C@@H]1C`
// result > 30 µM

// query Then what about the compound `Cc1cn([C@H]2C[C@H](N=[N+]=[N-])[C@@H](CO)O2)c(=O)[nH]c1=O` ?
// result > 30 µM

// query Now consider CCCC(=O)O[C@]1(C(=O)CO)CC[C@H]2[C@@H]3CCC4=CC(=O)CC[C@]4(C)[C@H]3[C@@H](O)C[C@@]21C [HYDROCORTISONE BUTYRATE] and answer again.
// result > 10 µM

// query Same question, OC(CNCC(O)C1CCc2cc(F)ccc2O1)C1CCc2cc(F)ccc2O1 (stereo not drawn) this time
// result > 30 µM

// query Another compound to check: `Cc1ccc(-n2nccn2)c(C(=O)N2CCN(c3nc4cc(Cl)ccc4o3)CC[C@H]2C)c1`
// result > 30 µM

// query Now the same for `O=C(O)CCCCCCNC1c2ccccc2CCc2ccccc21`
// result > 30 µM

// query Would you kindly repeat that for `Cc1cn([C@H]2C=C[C@@H](CO)O2)c(=O)[nH]c1=O` ?
// result > 30 µM

// query Now the same for NC(=O)CN1CC(O)CC1=O (stereo not drawn)
// result > 30 µM

// query Similarly, `C[C@H](N)[C@H](O)c1cccc(O)c1` ?
// result > 10 µM

// query Follow-up item: `C#C[C@]1(O)CC[C@H]2[C@@H]3[C@H](C)CC4=C(CCC(=O)C4)[C@H]3CC[C@@]21C`
// result > 30 µM

// query Now give it for `Nc1ccn([C@H]2CC[C@@H](CO)O2)c(=O)n1` too.
// result > 10 µM

// query Same for NS(=O)(=O)Cc1noc2ccccc12 [ZONISAMIDE]
// result > 10 µM

* * *

Reported AC50 for target or system Beta-2 adrenergic receptor (Homo sapiens, UniProt P07550), by entry. Note: assay procedure not described here.

{"molecule": "Nc1ccn([C@H]2CC[C@@H](CO)O2)c(=O)n1", "AC50": "> 10 µM"}

// query What does the record list as AC50 for COC(=O)C1=C(C)NC(C)=C(C(=O)OC2CCCN(Cc3ccccc3)C2)C1c1cccc([N+](=O)[O-])c1 (centres undefined) ?
// result > 30 µM

// query Another molecule to look at: COc1cc2nc(N(C)CCCNC(=O)C3CCCO3)nc(N)c2cc1OC (centres undefined)
// result > 30 µM

// query Try `CC/C(=C(\c1ccccc1)c1ccc(OCCN(C)C)cc1)c1ccccc1` next.
// result 13.6 µM

// query Record: `CC=CC(=O)N(CC)c1ccccc1C`
// result > 10 µM

// query Try this molecule too: CN1C(=O)CCS(=O)(=O)C1c1ccc(Cl)cc1 (centres undefined)
// result > 10 µM

// query Query `CN1CCC(=C2c3ccccc3CCc3sccc32)CC1` next
// result 5.8 µM

// query And the next one, `Nc1nc(/C(=C/CC(=O)O)C(=O)N[C@@H]2C(=O)N3C(C(=O)O)=CCS[C@H]23)cs1` ?
// result > 30 µM

// query Now try CN(C)CC/C=C1\c2ccccc2CSc2ccccc21 [DOTHIEPIN] .
// result > 30 µM

* * *

Here's a batch of molecules along with measured AC50 for Cholecystokinin receptor type A (Homo sapiens, UniProt P32238).

Consider the worked cases shown below.
{"molecule": "C[C@@H](O)[C@H]1C(=O)N2C(C(=O)O)=C(S[C@@H]3CN[C@H](C(=O)N(C)C)C3)[C@H](C)[C@H]12", "AC50": "> 300 µM"}
{"molecule": "CC(C)=CCC/C(C)=C/C=C/C(C)=C/C=C/C(C)=C/C=C/C=C(C)/C=C/C=C(C)/C=C/C=C(\\C)CCC=C(C)C", "AC50": "> 30 µM"}
{"molecule": "COCCCN1CCC(NC(=O)c2cc(Cl)c(N)c3c2OCC3)CC1 [PRUCALOPRIDE]", "AC50": "> 30 µM"}

Kindly consider the entry below.
// query // map `Clc1ccc(CCCOCCCN2CCCCC2)cc1` to recorded AC50 (system: Cholecystokinin receptor type A (Homo sapiens, UniProt P32238)); note: assay procedure not described here
Sequence (P32238 whole entry): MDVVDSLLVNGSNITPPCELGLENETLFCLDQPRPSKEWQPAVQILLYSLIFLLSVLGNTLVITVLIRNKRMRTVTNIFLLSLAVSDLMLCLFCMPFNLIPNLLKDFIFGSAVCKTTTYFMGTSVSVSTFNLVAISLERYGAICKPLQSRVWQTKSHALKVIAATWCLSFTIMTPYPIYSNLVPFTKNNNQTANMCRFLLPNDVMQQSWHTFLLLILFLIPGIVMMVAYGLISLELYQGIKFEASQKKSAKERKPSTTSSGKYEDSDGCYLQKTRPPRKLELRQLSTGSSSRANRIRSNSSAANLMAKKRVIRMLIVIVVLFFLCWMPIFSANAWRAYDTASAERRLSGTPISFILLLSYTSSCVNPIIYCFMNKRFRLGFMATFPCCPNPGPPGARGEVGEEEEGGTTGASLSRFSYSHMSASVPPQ
// result > 30 µM

* * *

Each entry below lists one item and its recorded AC50 value.
target: Prostaglandin G/H synthase 1 (Homo sapiens, UniProt P23219); assay type: functional
Sequence (P23219 whole entry): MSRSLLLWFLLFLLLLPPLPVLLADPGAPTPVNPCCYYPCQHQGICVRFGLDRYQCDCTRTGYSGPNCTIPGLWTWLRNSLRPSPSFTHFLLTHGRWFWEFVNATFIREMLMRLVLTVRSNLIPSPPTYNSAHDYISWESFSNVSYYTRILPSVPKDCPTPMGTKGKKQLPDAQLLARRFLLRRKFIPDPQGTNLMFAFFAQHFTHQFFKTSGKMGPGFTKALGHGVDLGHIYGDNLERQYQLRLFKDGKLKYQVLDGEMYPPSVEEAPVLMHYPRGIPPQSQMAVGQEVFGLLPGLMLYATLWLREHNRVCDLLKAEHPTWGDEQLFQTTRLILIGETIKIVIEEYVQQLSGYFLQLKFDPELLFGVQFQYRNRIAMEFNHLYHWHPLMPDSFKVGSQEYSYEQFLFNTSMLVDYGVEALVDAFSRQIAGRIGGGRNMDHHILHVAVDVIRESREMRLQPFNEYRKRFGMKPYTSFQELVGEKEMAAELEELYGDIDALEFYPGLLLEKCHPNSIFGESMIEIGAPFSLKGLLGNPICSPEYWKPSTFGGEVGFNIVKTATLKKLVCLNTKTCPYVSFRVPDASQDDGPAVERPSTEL

{"compound": "O=[N+]([O-])O[C@@H]1CO[C@H]2[C@@H]1OC[C@@H]2O [ISOSORBIDE MONONITRATE]", "AC50": "> 30 µM"}
{"compound": "CC[C@]1(O)C[C@H]2CN(CCc3c([nH]c4ccccc34)[C@@](C(=O)OC)(c3cc4c(cc3OC)N(C=O)[C@H]3[C@@](O)(C(=O)OC)[C@H](OC(C)=O)[C@]5(CC)C=CCN6CC[C@]43[C@@H]65)C2)C1", "AC50": "5.73 µM"}

// query # query: AC50 of entry COc1ccc(C(=O)Nc2ccccc2CCC2CCCCN2C)cc1 (stereo not drawn) [ENCAINIDE]
// result > 30 µM

* * *

molecular target: Prostaglandin G/H synthase 1 (Homo sapiens, UniProt P23219); assay type: functional
Quick reference for AC50 among some compounds

Past entries and their recorded results:
{"compound": "C=CCc1ccccc1OCC(O)CNC(C)C (stereo not drawn) [ALPRENOLOL]", "AC50": "> 0.3 µM"}
{"compound": "CC(C)(C)NCC(O)COc1cccc2c1SCCC2 (stereo not drawn) [TERTATOLOL]", "AC50": "> 30 µM"}
{"compound": "Nc1ccc2cc3ccc(N)cc3nc2c1 [PROFLAVINE]", "AC50": "22.1 µM"}
{"compound": "CN(C)[C@@H](c1cccc(O)c1)[C@H]1CCCC[C@H]1O [CIRAMADOL]", "AC50": "> 30 µM"}
{"compound": "N[C@H]1C(O)O[C@H](CO)[C@@H](O)[C@@H]1O (stereo partly drawn) [GLUCOSAMINE]", "AC50": "> 30 µM"}

// query Item CC[C@]1(O)C[C@H]2CN(CCc3c([nH]c4ccccc34)[C@@](C(=O)OC)(c3cc4c(cc3OC)N(C=O)[C@H]3[C@@](O)(C(=O)OC)[C@H](OC(C)=O)[C@]5(CC)C=CCN6CC[C@]43[C@@H]65)C2)C1 [VINCRISTINE] has what recorded AC50?
// result 11.2 µM

// query Request: O=C(O)c1cc(O)ccc1O [GENTISIC ACID]
// result > 30 µM

// query Item: COc1cc2nc(N3CCN(C(=O)c4ccco4)CC3)nc(N)c2cc1OC [PRAZOSIN]
// result > 30 µM

// query How about C[S+](CC[C@H](N)C(=O)[O-])C[C@H]1O[C@@H](n2cnc3c(N)ncnc32)[C@H](O)[C@@H]1O (stereo partly drawn) [ADEMETIONINE] ?
// result > 30 µM

// query Now try CCOC(=O)/C=C1\SC(N2CCCCC2)C(=O)N1C (stereo not drawn) [ETOZOLIN] .
// result > 30 µM

// query Param item: COc1ccc2c(c1)N(C[C@H](C)CN(C)C)c1ccccc1S2 [LEVOMEPROMAZINE]
// result 11.3 µM

// query What would you report for N[C@@H](C(=O)N[C@@H]1C(=O)N2C(C(=O)O)=C(Cl)CC[C@H]12)c1ccccc1 [LORACARBEF ANHYDROUS] ?
// result > 30 µM

// query Try this compound too: Cc1cc(NS(=O)(=O)c2ccc(N)cc2)nc(C)n1 [SULFISOMIDINE]
// result > 30 µM

// query Request: O=C(OCC(O)CO)c1ccccc1Nc1ccnc2cc(Cl)ccc12 (stereo not drawn) [GLAFENINE]
// result > 30 µM

// query Quick one: Nc1ccc(S(=O)(=O)c2cnc(N)s2)cc1 [THIAZOLSULFONE]
// result > 30 µM

// query Same question, CN(C)S(=O)(=O)c1ccc2c(c1)N(CCCN1CCC(CCO)CC1)c1ccccc1S2 [PIPOTIAZINE] this time
// result > 30 µM

// query Repeat with CC(C)(C)N1CCC(c2ccccc2)(c2ccccc2)CC1 [BUDIPINE]
// result > 30 µM

// query Same question, CN1CCN(C2=Nc3ccccc3Sc3ccc(Cl)cc32)CC1 [CLOTHIAPINE] this time
// result > 30 µM
